Experiment summary: basal HepG2 mitochondrial membrane potential changes, profiling panel, cell-based, JC-1 fluorescence, 24 h, 100 nL compound (AID 1167); also: test concentration not given here
Measurement conditions: higher = more signal
Mark 1.0 for reported z-score of -0.6 or greater; mark 0.0 for anything smaller.

>  <Compound>
Cc1ccc(S[C@]2(C(=O)NCCN3CCOCC3)CC(=O)N(Cc3cc(C(F)(F)F)cc(C(F)(F)F)c3)[C@@H]2c2ccc(CO)cc2I)cc1

>  <Group label>
1.0

$$$$
>  <Compound>
O=C1O[C@@H](c2ccccc2)[C@@H](c2ccccc2)N2[C@@H](c3ccc(OCCO)cc3)[C@]3(C(=O)Nc4ccccc43)[C@@H](C(=O)Nc3nc4ccccc4s3)[C@H]12

>  <Group label>
0.0

$$$$
>  <Compound>
Cc1ccc(S[C@]2(C(=O)NCC(C)C)CC(=O)N(Cc3ccccc3)[C@@H]2c2ccc(CO)cc2I)cc1

>  <Group label>
1.0

$$$$
>  <Compound>
O=C1[C@]2(CO)C=C(Br)[C@@H](C[C@@H]2c2ccccc2)[C@@]12CO2

>  <Group label>
0.0

$$$$
>  <Compound>
C[C@]1(C(=O)NCc2ccccc2)c2ccccc2C(=O)N(Cc2ccc(OC(F)(F)F)cc2)[C@H]1c1ccc(CO)cc1

>  <Group label>
1.0

$$$$
>  <Compound>
CN1CCC(CCCO)=CC1c1ccc(CN2CCCC2)cc1 (centres undefined)

>  <Group label>
1.0

$$$$
>  <Compound>
[N-]=[N+]=Nc1ccccc1C[C@]1(C(=O)NCCN2CCOCC2)N=C(c2ccc(OCCCO)cc2)O[C@H]1c1ccccc1

>  <Group label>
1.0

$$$$
>  <Compound>
COc1ccc(C#Cc2ccc3c(c2)[C@]2(C(=O)N3)[C@H](C(=O)NC[C@H](O)c3ccccc3)[C@H]3C(=O)O[C@H](c4ccccc4)[C@H](c4ccccc4)N3[C@@H]2c2ccc(OCCO)cc2)cc1

>  <Group label>
0.0

$$$$
>  <Compound>
C=C(CCCC)C(=O)CC[C@H](OC(=O)c1cccnc1)c1cccc(OCCO)c1

>  <Group label>
1.0

$$$$
>  <Compound>
COC(=O)[C@@]1(Cc2ccccc2)[C@H]2c3cc(C(=O)N(C)C)n(Cc4c(-c5ccccc5)noc4C)c3C[C@H]2CN1C(=O)c1ccccc1

>  <Group label>
1.0

$$$$
>  <Compound>
Cc1ccc(S[C@]2(C(=O)NCc3ccccc3)CC(=O)N(Cc3ccccc3)[C@@H]2c2ccc(CO)cc2)cc1

>  <Group label>
1.0

$$$$
>  <Compound>
COC(=O)[C@@]1(Cc2ccc(OC)cc2)[C@H]2c3cc(C(=O)N4CCCC4)n(CCc4c[nH]c5cc(F)ccc45)c3C[C@H]2CN1C(=O)c1ccccc1

>  <Group label>
1.0

$$$$
>  <Compound>
COC(=O)c1ccc(OC)c(/C=C\CC(OC(C)=O)c2ccccc2)c1 (centres undefined)

>  <Group label>
0.0

$$$$
>  <Compound>
O=C1OCCC=C[C@H]2OC34C=CCN(Cc5ccccc5)C(=O)[C@H]3N(CCCO)C(=O)[C@@H]4C12 (some centres undefined)

>  <Group label>
1.0

$$$$
>  <Compound>
COC(=O)c1c(CC[C@@H](CO)NC(=O)N[C@@H](Cc2ccccc2)Cn2cc(C3(O)CCCCC3)nn2)oc(C(C)=O)c1C(=O)OC

>  <Group label>
1.0

$$$$
>  <Compound>
CC1CC/C=C\[C@H]2OC34C=CCN(Cc5ccccc5)C(=O)[C@H]3N(CCCCCO)C(=O)[C@@H]4C2C(=O)O1 (some centres undefined)

>  <Group label>
1.0

$$$$
>  <Compound>
CC(C)Cc1ccc(CN2CC[C@@H](NS(=O)(=O)c3ccccc3)C2)cc1

>  <Group label>
0.0

$$$$
>  <Compound>
O=C1O[C@@H](c2ccccc2)[C@@H](c2ccccc2)N2[C@@H](c3ccccc3OCCO)[C@]3(C(=O)Nc4ccc(C#CC5(O)CCCCCC5)cc43)[C@@H](C(=O)Nc3nc4ccccc4s3)[C@H]12

>  <Group label>
0.0

$$$$
>  <Compound>
O=C1OCC=C[C@H]2OC34C=CCN(c5ccc6ccccc6c5)C(=O)[C@H]3N(CCCO)C(=O)[C@@H]4[C@@H]12 (some centres undefined)

>  <Group label>
1.0

$$$$
>  <Compound>
C=CCOC(=O)[C@H]1[C@@H]2C(=O)O[C@@H](c3ccccc3)[C@@H](c3ccccc3)N2[C@@H](c2ccc(OCCOC(=O)[C@@H]3C[C@@H]4C(=O)N5CCC[C@H]5C(=O)N4[C@@H]3c3ccc(O)cc3)cc2)[C@]12C(=O)Nc1ccccc12

>  <Group label>
0.0

$$$$
>  <Compound>
COC(=O)c1ccc(C(O)C2C=CC3C(=O)N(C)C(=O)C3N2NC(=O)OC(C)(C)C)o1 (centres undefined)

>  <Group label>
0.0

$$$$
>  <Compound>
CC(=O)NCCCC[C@@H]1NC(=O)[C@@H]2C[C@H](C(=O)NCCCCN(C)C)[C@H](c3ccc(O)cc3)N2C1=O

>  <Group label>
1.0

$$$$
>  <Compound>
CC(C)(C)OC(=O)CC[C@@]1(C(=O)NCCN2CCOCC2)N=C(c2ccc(OCCCO)cc2)O[C@@H]1c1ccccc1

>  <Group label>
1.0

$$$$
>  <Compound>
COCCOC(=O)N1C(=O)[C@@]2(c3cc(C#CC4(O)CCCCCC4)ccc31)[C@H](C(=O)N1CCCCCCC1)[C@H]1C(=O)O[C@H](c3ccccc3)[C@H](c3ccccc3)N1[C@@H]2c1ccccc1OCCO

>  <Group label>
0.0

$$$$
>  <Compound>
O=C(CS)NCCCCCCNC(=O)[C@@H]1C[C@@H]2C(=O)N3CCC[C@H]3C(=O)N2[C@@H]1c1ccc(O)cc1

>  <Group label>
0.0

$$$$
>  <Compound>
CC(c1ccccc1)C(O)C1C=CC2C(=O)NC(=O)C2N1Nc1ccccn1 (centres undefined)

>  <Group label>
1.0

$$$$
>  <Compound>
C=CC(COC(C)=O)NS(=O)(=O)c1ccc(Br)cc1 (centres undefined)

>  <Group label>
0.0

$$$$

* * *

Tested system: Epidermal growth factor receptor (Homo sapiens) (UniProt P00533)
Sequence (P00533 whole entry, looked up): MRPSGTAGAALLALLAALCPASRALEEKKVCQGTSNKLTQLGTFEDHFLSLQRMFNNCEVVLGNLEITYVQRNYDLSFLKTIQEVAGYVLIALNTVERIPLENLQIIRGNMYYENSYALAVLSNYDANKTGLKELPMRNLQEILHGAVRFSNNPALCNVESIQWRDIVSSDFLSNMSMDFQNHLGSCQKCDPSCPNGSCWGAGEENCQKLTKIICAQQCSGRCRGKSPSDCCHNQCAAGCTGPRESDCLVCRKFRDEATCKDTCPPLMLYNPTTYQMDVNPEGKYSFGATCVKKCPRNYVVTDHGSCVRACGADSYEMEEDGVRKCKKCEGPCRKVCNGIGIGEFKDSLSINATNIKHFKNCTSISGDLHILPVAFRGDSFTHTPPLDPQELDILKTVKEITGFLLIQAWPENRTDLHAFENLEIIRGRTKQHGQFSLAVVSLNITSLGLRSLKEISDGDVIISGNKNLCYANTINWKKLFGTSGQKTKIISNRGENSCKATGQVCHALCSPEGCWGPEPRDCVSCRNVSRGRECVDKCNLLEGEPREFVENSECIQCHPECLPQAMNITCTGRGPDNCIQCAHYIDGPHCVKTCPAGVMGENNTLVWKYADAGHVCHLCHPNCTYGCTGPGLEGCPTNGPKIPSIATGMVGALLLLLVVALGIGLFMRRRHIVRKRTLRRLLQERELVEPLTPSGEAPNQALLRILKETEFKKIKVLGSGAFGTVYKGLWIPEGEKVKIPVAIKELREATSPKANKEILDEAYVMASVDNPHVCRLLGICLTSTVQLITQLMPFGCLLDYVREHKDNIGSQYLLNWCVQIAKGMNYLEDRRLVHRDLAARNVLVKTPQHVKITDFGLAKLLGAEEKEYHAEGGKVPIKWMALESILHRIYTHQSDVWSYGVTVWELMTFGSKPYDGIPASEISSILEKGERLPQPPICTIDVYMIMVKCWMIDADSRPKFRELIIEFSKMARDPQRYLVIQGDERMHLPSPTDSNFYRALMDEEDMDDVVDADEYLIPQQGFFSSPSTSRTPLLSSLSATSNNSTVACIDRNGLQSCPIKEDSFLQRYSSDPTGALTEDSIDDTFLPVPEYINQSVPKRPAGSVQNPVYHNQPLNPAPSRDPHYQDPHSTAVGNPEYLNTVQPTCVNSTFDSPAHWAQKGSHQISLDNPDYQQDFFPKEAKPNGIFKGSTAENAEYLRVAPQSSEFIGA
Experiment summary: EGFR binders on small-molecule microarrays, primary screen, biochemical, small-molecule microarray, 635 nm fluorescence (AID 1104);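 also: score merges 667 nm emission intensity with spot signal to noise over triplicate slides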
Measurement conditions: EGFR binding, higher = more signal
// reported composite z-score for each item listed
Parameter measured: composite z-score

>  <Molecule>
CCCC[C@H]1OB(O)C[C@H]2C1=C(C)C[C@H]1C(=O)N(Cc3ccccc3)C(=O)[C@H]12

>  <Numeric readout>
0.244

$$$$
>  <Molecule>
CCCCCN1CC=CC23O[C@@H]4C=CCOC(=O)[C@@H]4[C@H]2C(=O)N(CCCO)[C@@H]3C1=O (some centres undefined)

>  <Numeric readout>
-0.681

$$$$
>  <Molecule>
CCOC(=O)C1=CCC(c2ccc(C#N)cc2)N(S(=O)(=O)c2ccc(C)cc2)C1 (centres undefined)

>  <Numeric readout>
0.555

$$$$
>  <Molecule>
COCCOC(=O)N1C(=O)[C@@]2(c3ccccc31)[C@H](c1ccc(O)cc1)N1[C@H](c3ccccc3)[C@H](c3ccccc3)OC(=O)[C@H]1[C@@H]2C(=O)N1CCc2cc(OC)c(OC)cc2C1

>  <Numeric readout>
0.869

$$$$

* * *

System: wheat germ agglutinin (Triticum aestivum), Alexa647-labelled
Experiment summary: wheat germ agglutinin binders on compound microarrays, profiling panel, artefact control for SMM control-protein annotation, biochemical, small-molecule microarray, 635/667 nm fluorescence (AID 1140);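 also: score merges 667 nm feature emission with signal to noise over triplicate slides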
Measurement conditions: WGA-A647 binding, 635 nm fluorescence, higher = more signal
Mark MET for reported composite z-score of 0.5 or greater; mark NOT MET for anything smaller.

>  <Compound>
Cc1ccc(S[C@]2(C(=O)NCc3ccccc3)CC(=O)N(Cc3ccccc3Cl)[C@@H]2c2ccc(CO)cc2I)cc1

>  <Group label>
MET

$$$$
>  <Compound>
CC(c1ccccc1)C(O)C1C=CC2C(=O)NC(=O)C2N1Nc1ccccn1 (stereo not drawn)

>  <Group label>
MET

$$$$
>  <Compound>
CC(C)C(=C=CC[C@H](O)c1ccccc1OCCO)C[C@H](O)c1ccccn1

>  <Group label>
MET

$$$$
>  <Compound>
CC(C)Cc1ccc(CN2CC[C@@H](NS(=O)(=O)c3ccccc3)C2)cc1

>  <Group label>
NOT MET

$$$$
>  <Compound>
C=C[C@@H](COC(C)=O)N(Cc1ccccc1[N+](=O)[O-])S(=O)(=O)c1ccc(Br)cc1

>  <Group label>
MET

$$$$
>  <Compound>
CCOC(=O)C[C@H]1[C@H](OC(=O)c2ccccc2-c2ccccc2)[C@@H](NC(=O)c2ccc3ccccc3c2)c2cc(OCCCO)ccc2N1C(=O)c1ccc2ccccc2n1

>  <Group label>
NOT MET

$$$$
>  <Compound>
CC(C)N1C(=O)[C@@]2(c3ccc([N+](=O)[O-])cc3)CC(=O)N(CC34CC5CC(CC(C5)C3)C4)[C@@H]2c2ccc(CO)cc21

>  <Group label>
MET

$$$$
>  <Compound>
CS(=O)(=O)CCOC(=O)C1=CC(CCCO)=CC(c2cccs2)N(Cc2cc3c(cc2Br)OCO3)C=C1C(=O)OCCS(C)(=O)=O (stereo not drawn)

>  <Group label>
MET

$$$$
